- System Tested: GSK-3β (Homo sapiens, UniProt P49841)
- Sequence (P49841 whole entry): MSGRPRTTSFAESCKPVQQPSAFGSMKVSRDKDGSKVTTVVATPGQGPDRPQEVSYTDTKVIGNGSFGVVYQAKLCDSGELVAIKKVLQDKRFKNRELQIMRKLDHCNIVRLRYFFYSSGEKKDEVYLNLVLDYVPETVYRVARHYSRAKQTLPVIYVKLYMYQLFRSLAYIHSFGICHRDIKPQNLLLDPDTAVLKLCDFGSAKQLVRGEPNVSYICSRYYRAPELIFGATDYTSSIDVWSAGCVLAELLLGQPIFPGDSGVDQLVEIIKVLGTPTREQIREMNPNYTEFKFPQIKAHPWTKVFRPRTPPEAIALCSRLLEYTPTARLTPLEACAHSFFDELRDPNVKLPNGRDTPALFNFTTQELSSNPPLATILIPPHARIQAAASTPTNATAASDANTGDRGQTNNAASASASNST
- Test Summary: Assay for GSK-3β inhibiting activity (32P-ATP, phospho-CREB peptide substrate, filter paper, CPM)
- Assay type: biochemical
- Measurement Parameters: GSK-3β inhibiting activity; 100 nM GSK-3β protein, 100 μM phospho-CREB peptide, 100 μM ATP, 30° C. for 1 hour; read-out: IC50
Please respond with reported pIC50 for every item in the list.
Scale: pIC50 equals -log10([C]), with [C] in mol/L.

**Query** Any idea what pIC50 was measured for CS(=O)(=O)Nc1ccc(CCNC(=O)c2ccc(O)c3nc(-c4ccc(Cl)cc4)[nH]c23)cc1 ?
**Result** 8.05

**Query** Another compound: O=C(NCCCn1ccnc1)c1ccc(O)c2nc(-c3ccc(F)c(Cl)c3)[nH]c12
**Result** 8.52

**Query** Another compound: CC(C)c1nccn1CCCNC(=O)c1ccc(O)c2[nH]c(-c3ccc(F)cc3)nc12
**Result** 7.30

**Query** Another compound: O=C(NCCc1ccc(N2CCOCC2)cc1)c1ccc(O)c2[nH]c(-c3ccc(F)cc3)nc12
**Result** 6.72

**Query** Another compound: O=C(NCCCn1cnc(Cl)c1Cl)c1ccc(O)c2[nH]c(-c3ccc(F)cc3Cl)nc12
**Result** 8.70

**Query** Another compound: O=C(NCCN1CCOCC1)c1ccc(O)c2[nH]c(-c3ccc(F)cc3Cl)nc12
**Result** 6.68

**Query** Another compound: O=C(NCc1ccccc1)c1ccc(O)c2nc(-c3ccccc3)[nH]c12
**Result** 6.06

**Query** Another compound: O=C(NCCCn1ccnc1)c1ccc(O)c2[nH]c(-c3ccc(F)cc3F)nc12
**Result** 8.10

**Query** Another compound: O=C(NCCCn1ccnc1-c1ccccc1)c1ccc(O)c2[nH]c(-c3ccc(Cl)cc3)nc12
**Result** 6.10

**Query** Another compound: CN(C)CC(=O)Nc1ccc(CCNC(=O)c2ccc(O)c3[nH]c(-c4ccc(F)cc4)nc23)cc1
**Result** 6.92

**Query** Another compound: Cc1ccc(S(=O)(=O)Nc2ccc(CCNC(=O)c3ccc(O)c4[nH]c(-c5ccc(Cl)cc5Cl)nc34)cc2)cc1
**Result** 7.30

**Query** Another compound: CN1CCN(CC(=O)Nc2ccc(CCNC(=O)c3ccc(O)c4[nH]c(-c5ccc(F)cc5Cl)nc34)cc2)CC1
**Result** 6.55

**Query** Another compound: Cc1cn(CCCNC(=O)c2ccc(O)c3[nH]c(-c4ccc(Cl)cc4Cl)nc23)cn1
**Result** 7.52

**Query** Another compound: CS(=O)(=O)Nc1ccc(CCNC(=O)c2ccc(O)c3[nH]c(-c4ccc(F)cc4Cl)nc23)cc1
**Result** 8.70

**Query** Another compound: O=C(NCc1ccc([N+](=O)[O-])cc1)c1ccc(O)c2[nH]c(-c3ccc(Cl)cc3Cl)nc12
**Result** 6.15

====

- System Tested: GSK-3β (Homo sapiens)
- Test Summary: Assay for GSK-3β inhibiting activity (32P-ATP, phospho-CREB peptide substrate, filter paper, CPM)
- Format: biochemical
- Measurement Parameters: GSK-3β inhibiting activity; 100 nM GSK-3β protein, 100 μM phospho-CREB peptide, 100 μM ATP, 30° C. for 1 hour; read-out: IC50
Value Type: IC50 (µM)
# number only, unit µM dropped from output

**Query** Any idea what IC50 was measured for O=C(NCCc1ccc(N2C(=O)c3ccccc3C2=O)cc1)c1ccc(O)c2[nH]c(-c3ccc(Cl)cc3Cl)nc12 ?
**Result** 0.05

**Query** Another compound: CCCCC(=O)Nc1ccc(CCNC(=O)c2ccc(O)c3[nH]c(-c4ccc(F)cc4)nc23)cc1
**Result** 0.07

**Query** Another compound: COc1ccccc1CCNC(=O)c1ccc(O)c2[nH]c(-c3ccc(Cl)cc3)nc12
**Result** 0.17

**Query** Another compound: CCc1nccn1CCCNC(=O)c1ccc(O)c2[nH]c(-c3ccc(F)cc3F)nc12
**Result** 0.02

**Query** Another compound: Cc1ccc(S(=O)(=O)Nc2ccc(NCCNC(=O)c3ccc(O)c4[nH]c(-c5ccc(F)cc5)nc34)nc2)cc1
**Result** 0.07

**Query** Another compound: CCS(=O)(=O)NCCc1ccc(NC(=O)c2ccc(O)c3[nH]c(-c4ccc(Cl)cc4Cl)nc23)cc1
**Result** 0.5

**Query** Another compound: O=C(NCCc1ccc(O)cc1)c1ccc(O)c2[nH]c(-c3ccc(F)cc3)nc12
**Result** 0.03

**Query** Another compound: Cc1cn(CCCNC(=O)c2ccc(O)c3[nH]c(-c4ccc(F)cc4)nc23)cn1
**Result** 0.01

**Query** Another compound: O=C(NC1CCC(O)CC1)c1ccc(O)c2[nH]c(-c3ccccc3)nc12 (stereo not shown)
**Result** 0.3
